Origin of the recorded values: ChEMBL document CHEMBL5113462

TARGET DESC: UniProt:P9WIQ1
METHOD DESCRIPTION: Inhibition of Mycobacterium tuberculosis UGM expressed in Escherichia coli BL21(DE3) at 500 uM by Fluorescence polarization assay relative to control
Threshold rule: inhibition greater than or equal to 50% is Criterion met; below that, Criterion not met.

• O=C(/C=C/c1ccccc1)N[C@@H](Cc1ccc(Br)cc1)C(=O)O = Criterion met
• O=C(/C=C/c1ccccc1)N[C@@H](Cc1ccccc1)C(=O)O = Criterion not met
• COc1cc(/C=C/C(=O)N[C@@H](Cc2ccc(O)c(O)c2)C(=O)O)ccc1O = Criterion not met
• O=c1ccn([C@@H]2O[C@H](COP(=O)(O)OP(=O)(O)O)[C@@H](O)[C@H]2O)c(=O)[nH]1 [URIDINE_DIPHOSPHATE] = Criterion met
• O=C(/C=C/c1ccccc1)N[C@@H](Cc1ccc(O)cc1)C(=O)O = Criterion not met
• O=C(/C=C/c1ccccc1)N[C@@H](Cc1ccc([N+](=O)[O-])cc1)C(=O)O = Criterion met
• O=C(/C=C/c1ccc(O)c(O)c1)N[C@@H](Cc1ccc(O)cc1)C(=O)O = Criterion not met
• O=C(/C=C/c1ccccc1)N[C@@H](Cc1ccc(F)cc1)C(=O)O = Criterion not met
• O=C(/C=C/c1ccc(O)c(O)c1)O[C@H](Cc1ccc(O)c(O)c1)C(=O)O = Criterion not met
• O=C(/C=C/c1ccccc1)N[C@@H](Cc1ccc(I)cc1)C(=O)O = Criterion met

###

TARGET DESC: UDP-galactopyranose mutase (Mycobacterium tuberculosis, UniProt P9WIQ1)
METHOD DESCRIPTION: Inhibition of Mycobacterium tuberculosis UGM expressed in Escherichia coli BL21(DE3) assessed as dissociation constant by fluorescence polarization assay
PROPERTY LABEL: Kd (µM)

* O=C(/C=C/c1ccccc1)N[C@@H](Cc1ccc(F)cc1)C(=O)O | 948
* O=C(/C=C/c1ccc(O)c(O)c1)O[C@H](Cc1ccc(O)c(O)c1)C(=O)O | 653
* O=c1ccn([C@@H]2O[C@H](COP(=O)(O)OP(=O)(O)O)[C@@H](O)[C@H]2O)c(=O)[nH]1 [URIDINE_DIPHOSPHATE] | 35
* O=C(/C=C/c1ccccc1)N[C@@H](Cc1ccc(Cl)cc1)C(=O)O | 358
* O=C(/C=C/c1ccccc1)N[C@@H](Cc1ccc([N+](=O)[O-])cc1)C(=O)O | 401
* O=C(/C=C/c1ccccc1)N[C@@H](Cc1ccc(Br)cc1)C(=O)O | 63
* O=C(/C=C/c1ccccc1)N[C@@H](Cc1ccc(I)cc1)C(=O)O | 197

###

pKd: −log10 of the molar value.
A short record of pKd observed with UniProt Q48485 follows.
Sequence (Q48485 whole entry): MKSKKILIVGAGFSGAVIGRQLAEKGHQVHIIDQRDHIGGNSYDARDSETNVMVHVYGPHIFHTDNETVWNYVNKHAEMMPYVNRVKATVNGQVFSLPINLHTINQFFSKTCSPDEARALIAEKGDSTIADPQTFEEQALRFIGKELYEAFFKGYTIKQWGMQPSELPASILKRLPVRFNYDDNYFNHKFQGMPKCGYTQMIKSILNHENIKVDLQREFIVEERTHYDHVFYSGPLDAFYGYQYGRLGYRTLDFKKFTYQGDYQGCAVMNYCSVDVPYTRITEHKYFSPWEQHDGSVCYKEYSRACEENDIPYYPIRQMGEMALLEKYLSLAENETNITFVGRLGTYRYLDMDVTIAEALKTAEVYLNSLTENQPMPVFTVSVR
PROPERTY LABEL: pKd

* O=C(/C=C/c1ccccc1)N[C@@H](Cc1ccc(Cl)cc1)C(=O)O | 4.37
* O=C(/C=C/c1ccc(O)c(O)c1)O[C@H](Cc1ccc(O)c(O)c1)C(=O)O | 4.16
* O=C(/C=C/c1ccccc1)N[C@@H](Cc1ccc(F)cc1)C(=O)O | 3.81
* O=C(/C=C/c1ccccc1)N[C@@H](Cc1ccc(Br)cc1)C(=O)O | 4.24
* O=c1ccn([C@@H]2O[C@H](COP(=O)(O)OP(=O)(O)O)[C@@H](O)[C@H]2O)c(=O)[nH]1 [URIDINE_DIPHOSPHATE] | 4.27
* O=C(/C=C/c1ccccc1)N[C@@H](Cc1ccc([N+](=O)[O-])cc1)C(=O)O | 3.64
* O=C(/C=C/c1ccccc1)N[C@@H](Cc1ccc(I)cc1)C(=O)O | 4.77

###

TARGET DESC: UDP-galactopyranose mutase (Mycobacterium tuberculosis, UniProt P9WIQ1)
METHOD DESCRIPTION: Inhibition of Mycobacterium tuberculosis UGM expressed in Escherichia coli BL21(DE3) assessed as dissociation constant by SPR analysis
PROPERTY LABEL: Kd (µM)

• O=C(/C=C/c1ccccc1)N[C@@H](Cc1ccc(Br)cc1)C(=O)O = 105

###

TARGET DESC: UDP-galactopyranose mutase (Mycobacterium tuberculosis) (UniProt P9WIQ1)
Sequence (P9WIQ1 whole entry, looked up): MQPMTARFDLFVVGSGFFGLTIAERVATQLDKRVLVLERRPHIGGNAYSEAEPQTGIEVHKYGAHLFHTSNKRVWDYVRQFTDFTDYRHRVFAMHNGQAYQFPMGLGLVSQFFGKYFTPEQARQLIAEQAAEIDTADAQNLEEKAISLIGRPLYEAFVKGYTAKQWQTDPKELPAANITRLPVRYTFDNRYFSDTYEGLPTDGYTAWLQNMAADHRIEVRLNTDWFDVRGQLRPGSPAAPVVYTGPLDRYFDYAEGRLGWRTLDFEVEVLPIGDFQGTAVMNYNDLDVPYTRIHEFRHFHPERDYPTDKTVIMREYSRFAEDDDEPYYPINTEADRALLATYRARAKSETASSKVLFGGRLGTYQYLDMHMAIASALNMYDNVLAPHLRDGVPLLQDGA
METHOD DESCRIPTION: Inhibition of Mycobacterium tuberculosis UGM expressed in Escherichia coli BL21(DE3) assessed as formation of UDP-galactopyranose at 500 uM preincubated for 5 min followed by substrate addition and measured after 1 to 3 mins using UDP-galactofuranose as substrate by HPLC analysis relative to control
ASSAY SETUP: time 6-8 min
PROPERTY LABEL: inhibition (%)

• O=c1ccn([C@@H]2O[C@H](COP(=O)(O)OP(=O)(O)O)[C@@H](O)[C@H]2O)c(=O)[nH]1 [URIDINE_DIPHOSPHATE] = 47.6
• O=C(/C=C/c1ccccc1)N[C@@H](Cc1ccc(Cl)cc1)C(=O)O = 63.3
• O=C(/C=C/c1ccccc1)N[C@@H](Cc1ccc([N+](=O)[O-])cc1)C(=O)O = 35.2
• O=C(/C=C/c1ccccc1)N[C@@H](Cc1ccc(Br)cc1)C(=O)O = 87
• O=C(/C=C/c1ccccc1)N[C@@H](Cc1ccc(I)cc1)C(=O)O = 54.6
